The reported numbers originate from ChEMBL document CHEMBL1201862.

Each entry below lists one item and its recorded GI50 value.
system: IGROV-1; test: NCI tumour cell line growth inhibition, 48 h
Activity calls are given as the source filed them. Rule as the data show it: active = GI50 up to about 1.1 µM and inactive = higher.
quantity_kind: GI50

compound: CCCCC[C@H]1CC=CC(=O)O1
quantity_kind: GI50
test_value: 5.27 µM (inactive)
//
compound: CCOC(=O)CC[C@H](NC(=O)c1nc[nH]c1/N=N/N(C)C)C(=O)OCC
quantity_kind: GI50
test_value: > 100 µM (inactive)
//
compound: Cc1cc(OP2(=O)NCc3ccncc3O2)ccc1Cl (configuration not stated)
quantity_kind: GI50
test_value: > 100 µM (inactive)
//
compound: NC(C(=O)O)c1ccc(C(=O)O)cc1 (configuration not stated)
quantity_kind: GI50
test_value: > 100 µM (inactive)
//
compound: O=C(CC1=Nc2nnc(-c3nnc4n3C(=O)C(CC(=O)C3CC3)=N4)n2C1=O)C1CC1
quantity_kind: GI50
test_value: > 100 µM (inactive)
//
compound: Cc1ccc2nc(NC(=O)C(=O)C(C#N)c3ccc(Cl)cc3)sc2c1 (configuration not stated)
quantity_kind: GI50
test_value: > 50 µM (inactive)
//
compound: CC1=C(C)C2(C#N)C(=O)N3C(=NC(c4ccco4)NC3c3ccco3)C2(C#N)C(c2ccco2)N1 (configuration not stated)
quantity_kind: GI50
test_value: > 100 µM (inactive)
//
compound: CCCCCCCC(=O)OCC1OC(n2cc(F)c(=O)[nH]c2=O)C(NC(=O)OCc2ccccc2)C(OC(=O)CCCCCCC)C1O (configuration not stated)
quantity_kind: GI50
test_value: > 100 µM (inactive)
//
compound: CCN(CCO)C(=O)C1(c2ccccc2)CCCCC1
quantity_kind: GI50
test_value: > 10 µM (inactive)
//
compound: CCCCCCCCCCCCCCCCOP(=O)(O)OP(=O)(O)OCC1OC(n2ccc(N)nc2=O)CC1O (configuration not stated)
quantity_kind: GI50
test_value: > 100 µM (inactive)
//
compound: O=C(CCc1ccccc1)On1nnc2ccccc2c1=O
quantity_kind: GI50
test_value: > 100 µM (inactive)
//
compound: BrP(NC1CCCCCC1)(c1ccccc1)(c1ccccc1)c1ccccc1
quantity_kind: GI50
test_value: 3.96 µM (inactive)
//
compound: CCN(CC)CCOc1ccc(N2C(=O)c3cccc4cc([N+](=O)[O-])cc(c34)C2=O)cc1
quantity_kind: GI50
test_value: 7.08 µM (inactive)
//
compound: CNc1nc(N)cc(O)n1
quantity_kind: GI50
test_value: > 100 µM (inactive)
//
compound: NCCn1ccc(NC(c2ccccc2)(c2ccccc2)c2ccccc2)nc1=O
quantity_kind: GI50
test_value: 40.7 µM (inactive)
//
compound: O=c1c2ccccc2nc(-c2ccc(Br)cc2)n1NC1OC(CO)C(O)C(O)C1O (configuration not stated)
quantity_kind: GI50
test_value: > 100 µM (inactive)
//
compound: O=c1[nH]nc(-c2ccccc2)n1O
quantity_kind: GI50
test_value: > 100 µM (inactive)
//
compound: CC(C)(C)OC(=O)NC(Cc1ccc(OCc2ccccc2)cc1)C(=O)NC(COCc1ccccc1)C(=O)Oc1c(Cl)c(Cl)c(Cl)c(Cl)c1Cl (configuration not stated)
quantity_kind: GI50
test_value: 15.8 µM (inactive)
//
compound: CCCCc1c2cnccc2c(CCCC)c2c1[nH]c1ccccc12
quantity_kind: GI50
test_value: 12.4 µM (inactive)
//
compound: Nc1c([N+](=O)[O-])cc2c3c(cccc13)CC2
quantity_kind: GI50
test_value: > 100 µM (inactive)
//
compound: CN1CCN(c2cc3[nH]c(-c4ccc(Cl)cc4)nc3cc2F)CC1
quantity_kind: GI50
test_value: 15.7 µM (inactive)
//
compound: O/N=C1/CCCCCC1NO (configuration not stated)
quantity_kind: GI50
test_value: > 100 µM (inactive)
